- Assay System: GST-hRIPK1 (8-327) (Homo sapiens (Human), UniProt Q13546)
- Sequence (Q13546 8-327): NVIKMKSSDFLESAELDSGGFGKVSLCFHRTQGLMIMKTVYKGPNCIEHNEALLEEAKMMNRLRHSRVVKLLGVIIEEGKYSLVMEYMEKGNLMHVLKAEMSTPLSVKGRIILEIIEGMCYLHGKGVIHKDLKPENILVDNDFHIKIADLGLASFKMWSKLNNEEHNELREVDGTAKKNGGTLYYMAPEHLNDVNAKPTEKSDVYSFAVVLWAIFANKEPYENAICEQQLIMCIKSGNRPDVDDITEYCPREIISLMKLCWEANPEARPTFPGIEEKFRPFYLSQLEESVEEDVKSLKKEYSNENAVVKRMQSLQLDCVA
- Assay Text: Fluorescent Polarization Binding (FP Binding) assay
pIC50: −log10 of the molar value.
In this section, each of the compounds is paired with its reported pIC50.

Solved entries:
CN1C(=O)[C@@H](NC(=O)C2CC(Cc3ccccc3)C2)COc2ccccc21 (some centres unmarked) | 5.00 to 6.00
C[C@@H]1Oc2cccnc2N(C)C(=O)[C@H]1NC(=O)c1nn(Cc2ccccc2)cc1F | 6.00 to 10.00
[2H]C([2H])([2H])N1C(=O)[C@@H](NC(=O)c2nnc(Cc3ccccc3)o2)[C@@H](C)Oc2cccnc21 | 6.00 to 10.00
N#Cc1cccc(Cn2cc(F)c(C(=O)N[C@@H]3C(=O)Nc4c(F)cc(F)cc4[C@@H]4C[C@H]34)n2)c1 [Example 170A] | 6.00 to 10.00
CN1C(=O)[C@@H](NC(=O)c2cc(Cc3ccccc3)on2)C2CC2c2ccccc21 (some centres unmarked) | 6.00 to 10.00
CN1C(=O)[C@@H](NC(=O)c2nnc(Cc3ccccc3)[nH]2)COc2cnccc21 | 6.00 to 10.00

*Q* Lab request: please report pIC50 under test system GST-hRIPK1 (8-327) (Homo sapiens (Human), UniProt Q13546) for N#Cc1cccc(Cn2cc(F)c(C(=O)N[C@H]3C(=O)Nc4c(F)cc(F)cc4[C@H]4C[C@H]43)n2)c1 [Example 170B]
*A* < 5.52

*Q* Give GST-hRIPK1 (8-327) (Homo sapiens (Human), UniProt Q13546) pIC50 for CN1C(=O)[C@@H](NC(=O)c2nnc(Cc3ccccc3)s2)[C@H]2C[C@H]2c2cccnc21 [Example 120A]
*A* 6.00 to 10.00

* * *

pIC50 listing for selected compounds.
- Assay System: GST-hRIPK1 (8-327) (Homo sapiens (Human))
- Assay Text: Fluorescent Polarization Binding (FP Binding) assay
pIC50: −log10 of the molar value.

CN1C(=O)[C@@H](NC(=O)c2cc(Cc3ccccc3)on2)CCc2nccnc21 | 6.00 to 10.00
C[C@H]1Oc2cccnc2N(C)C(=O)[C@H]1NC(=O)c1nn(Cc2ccc(C#N)cc2)cc1F | 6.00 to 10.00
CN1C(=O)[C@@H](NC(=O)c2nc(F)c(Cc3ccccc3)s2)COc2cccnc21 | 6.00 to 10.00
CN1C(=O)[C@@H](NC(=O)c2ncc(S(=O)(=O)c3ccccc3)s2)COc2ccccc21 | 5.00 to 6.00
CN1C(=O)C(NC(=O)c2nnc(Cc3ccccc3)[nH]2)CC(F)(F)c2ccccc21 (centres unmarked) | 6.00 to 10.00

*Q* Look up pIC50 for this compound: CN1C(=O)[C@@H](NC(=O)c2nnc(Cc3ccccc3)[nH]2)CCc2nn(C)cc21 [Example 105A]
*A* 6.00 to 10.00

*Q* Using the record for "CN1C(=O)[C@@H](NC(=O)c2cc(Oc3ccccc3F)cnn2)COc2cccnc21" , report its pIC50.
*A* 6.00 to 10.00

*Q* Requested field: pIC50. Item: Cn1cc2c(n1)CC[C@@H](NC(=O)c1nnc(Cc3ccccc3)[nH]1)C(=O)N2 [Example 104A]
*A* < 5.52

* * *

Measured IC50 accompanies every entry in the list below.
- Assay System: GST-hRIPK1 (8-327) (Homo sapiens (Human), UniProt Q13546)
- Assay Text: Fluorescent Polarization Binding (FP Binding) assay

C[C@H]1Oc2cccnc2N(C)C(=O)[C@H]1NC(=O)c1nn(Cc2cccc(C#N)c2)cc1F | 0.0001 to 1 µM
CN1C(=O)[C@@H](NC(=O)c2nnc(Cc3ccccc3)[nH]2)CCc2c1cnn2C [Example 101B] | 0.0001 to 1 µM
Cn1ncc2c1CC[C@H](NC(=O)c1nnc(Cc3ccccc3)[nH]1)C(=O)N2 [Example 118B] | 1 to 10 µM

*Q* Would you kindly share the measured IC50 for "C[C@H]1Oc2cccnc2N(C)C(=O)[C@H]1NC(=O)c1cn(Cc2ccccc2)nn1" ?
*A* 0.0001 to 1 µM

*Q* # get_value(readout='IC50', item= "CN1C(=O)[C@@H](NC(=O)c2ncc(Cc3cccc(C#N)c3)s2)COc2ccccc21" )
*A* 0.0001 to 1 µM

*Q* Query: IC50; subject: "O=C(N[C@@H]1C(=O)Nc2c(F)cc(F)cc2[C@H]2C[C@@H]12)c1nnc(Cc2ccccc2)[nH]1"
*A* 0.0001 to 1 µM

*Q* What does the data say about its IC50? Entry: "C[C@H]1Oc2cccnc2N(C)C(=O)[C@H]1NC(=O)c1cn(Cc2ccccc2)cn1"
*A* 0.0001 to 1 µM

*Q* Recorded IC50 for CN1C(=O)C(NC(=O)c2nnc(Cc3ccccc3)[nH]2)[C@@H]2C[C@@H]2c2ccccc21 (stereo in doubt) [Example 46B] , please?
*A* > 3 µM
